Form field: growth AUC normalised to DMSO control (one value per entry).
# System: Salmonella enterica typhimurium
# experiment description: growth AUC normalised to DMSO control (fraction of control); higher = less growth inhibition, active = hit call of the paper
# recorded conditions: 20 µM
Where a name gives a salt, the structure may show the parent alone.

[
  {
    "compound": "COc1cc2nc(N3CCN(C(=O)C4COc5ccccc5O4)CC3)nc(N)c2cc1OC (configuration not stated) [Doxazosin mesylate]",
    "growth AUC normalised to DMSO control": "0.974 (inactive)"
  },
  {
    "compound": "CCOC(=O)C1=C[C@]2(CC)CCCN3CCc4c(n1c1ccccc41)[C@@H]32",
    "growth AUC normalised to DMSO control": "0.974 (inactive)"
  },
  {
    "compound": "CC(C)C(=O)Nc1ccc([N+](=O)[O-])c(C(F)(F)F)c1 [Flutamide]",
    "growth AUC normalised to DMSO control": "1.01 (inactive)"
  },
  {
    "compound": "CC[N+](C)(CC)CCC[n+]1c(-c2ccccc2)c2cc(N)ccc2c2ccc(N)cc21 [Propidium iodide]",
    "growth AUC normalised to DMSO control": "0.998 (inactive)"
  },
  {
    "compound": "Cc1cc(N)c2ccccc2[n+]1CCCCCCCCCC[n+]1c(C)cc(N)c2ccccc21 [Dequalinium dichloride]",
    "growth AUC normalised to DMSO control": "0.989 (inactive)"
  },
  {
    "compound": "Cc1ccc(C)c(OCCCC(C)(C)C(=O)O)c1",
    "growth AUC normalised to DMSO control": "0.997 (inactive)"
  },
  {
    "compound": "CNC(=O)c1c(I)c(C(=O)NCC(=O)Nc2c(I)c(C(=O)O)c(I)c(C(=O)NCCO)c2I)c(I)c(N(C)C(C)=O)c1I",
    "growth AUC normalised to DMSO control": "0.968 (inactive)"
  },
  {
    "compound": "CCOc1ccc(Cc2nccc3cc(OCC)c(OCC)cc23)cc1OCC [Ethaverine hydrochloride]",
    "growth AUC normalised to DMSO control": "1.01 (inactive)"
  },
  {
    "compound": "Cc1cccc(C)c1NC(=O)CN1CCN(CCCC(c2ccc(F)cc2)c2ccc(F)cc2)CC1",
    "growth AUC normalised to DMSO control": "1.01 (inactive)"
  },
  {
    "compound": "CC(C)(C)NC[C@H](O)COc1nsnc1N1CCOCC1 [Timolol maleate salt]",
    "growth AUC normalised to DMSO control": "0.981 (inactive)"
  },
  {
    "compound": "O=c1n(CCCN2CCN(c3cccc(Cl)c3)CC2)nc2ccccn12 [Trazodone hydrochloride]",
    "growth AUC normalised to DMSO control": "0.992 (inactive)"
  },
  {
    "compound": "CC[C@@H]1C(=O)OC[C@@H]1Cc1cncn1C [Pilocarpine nitrate]",
    "growth AUC normalised to DMSO control": "0.995 (inactive)"
  },
  {
    "compound": "CC(CNC1CCCCC1)OC(=O)c1ccccc1 (configuration not stated) [Hexylcaine hydrochloride]",
    "growth AUC normalised to DMSO control": "0.993 (inactive)"
  },
  {
    "compound": "COc1cc(OC)c(C(=O)CCCN2CCCC2)c(OC)c1 [Buflomedil hydrochloride]",
    "growth AUC normalised to DMSO control": "1 (inactive)"
  },
  {
    "compound": "OC(CCN1CCCC1)(c1ccccc1)C1CCCCC1 (configuration not stated) [Procyclidine hydrochloride]",
    "growth AUC normalised to DMSO control": "0.975 (inactive)"
  },
  {
    "compound": "C#C[C@]1(O)CC[C@H]2[C@@H]3CCC4=CCCC[C@@H]4[C@H]3CC[C@@]21C",
    "growth AUC normalised to DMSO control": "0.997 (inactive)"
  },
  {
    "compound": "O=C(O)COC(=O)Cc1ccccc1Nc1c(Cl)cccc1Cl",
    "growth AUC normalised to DMSO control": "0.995 (inactive)"
  }
]
